experiment: NCI Yeast Anticancer Drug Screen. Data for the CLN2oe strain (AID 163);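 note: 0% = growth of vehicle-only control cultures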; details: S. cerevisiae CLN2oe strain, at 3.7 µM, stronger effect = higher value
This is part of a sample that, as a whole, favours compounds with a hit. Of some 79,000 tested, about 15% had one in any assay.
Measured growth inhibition, listed per entry for reference.
recorded_endpoint: growth inhibition (%)

compound=Cc1cc2c(cc1C)[n+]([O-])c(-c1nc3ccccc3s1)c(N)[n+]2[O-] recorded_endpoint="growth inhibition" units_of_measure=% reported_result=5
compound=c1ccc(Cc2cc(-c3ccccc3)n[nH]2)cc1 recorded_endpoint="growth inhibition" units_of_measure=% reported_result=-8
compound=COC(=O)/C=C(/C(=O)OC)C(Cl)(Cl)Cl recorded_endpoint="growth inhibition" units_of_measure=% reported_result=-3
compound=O=C1Nc2ccccc2/C1=C/c1ccccc1 recorded_endpoint="growth inhibition" units_of_measure=% reported_result=-9
compound=O=[n+]1c2ccccc2n([O-])c2cc(Br)ccc21 recorded_endpoint="growth inhibition" units_of_measure=% reported_result=9
compound=O=C1C=C(Cl)C(=O)N1c1cccc(Cl)c1 recorded_endpoint="growth inhibition" units_of_measure=% reported_result=33
compound="COc1ccc(NC(=O)CC2SC(=Nc3ccccc3C)NC2=O)c([N+](=O)[O-])c1 (stereo unspecified)" recorded_endpoint="growth inhibition" units_of_measure=% reported_result=-4
compound="CC(C)CCCC(C)C1CCC2C3CCC4=CC(=O)/C(=C\\O)CC4(C)C3CCC12C (stereo unspecified)" recorded_endpoint="growth inhibition" units_of_measure=% reported_result=-5
compound=CNC(=O)OCc1c(COC(=O)NC)c(-c2ccc(Cl)c(Cl)c2)n2c1SCC2 recorded_endpoint="growth inhibition" units_of_measure=% reported_result=-6
compound="CCOC(=O)C1=C(C)NC(C)=C(C(=O)OCCNC(=O)c2ccc(N=[N+]=[N-])cc2)C1c1ccccc1C(F)(F)F (stereo unspecified)" recorded_endpoint="growth inhibition" units_of_measure=% reported_result=-2
compound="CCc1ccc2c(c1)N(CC(C)CN(C)C)c1ccccc1S2 (stereo unspecified)" recorded_endpoint="growth inhibition" units_of_measure=% reported_result=-4
compound=COC1=C(OC)C(=O)C(Sc2ccc3ccccc3c2)=CC1=O recorded_endpoint="growth inhibition" units_of_measure=% reported_result=19
compound="CCOC(=O)COc1c(OC)cc(C2C3=C(COC3=O)Oc3cc4c(cc32)OCO4)cc1OC (stereo unspecified)" recorded_endpoint="growth inhibition" units_of_measure=% reported_result=-3
compound=CCN(CC)CCN(C)CCc1ccc(Br)cc1 recorded_endpoint="growth inhibition" units_of_measure=% reported_result=15
compound=O=C(O)c1cc2ccc(Cl)cc2c(O)c1C1=CCCCC1 recorded_endpoint="growth inhibition" units_of_measure=% reported_result=-2
compound=CC(C)(C)N=C(NO)c1ccccc1 recorded_endpoint="growth inhibition" units_of_measure=% reported_result=-7
compound="COC(=O)C1(C)CCc2c(ccc3ccccc23)C1=O (stereo unspecified)" recorded_endpoint="growth inhibition" units_of_measure=% reported_result=4
compound="CC(NCCN(C)C)C1CCC2C3CCc4cc(O)ccc4C3CCC12C (stereo unspecified)" recorded_endpoint="growth inhibition" units_of_measure=% reported_result=1
compound="CCC1(OC(=O)CN2CCN(CCO)CC2)C(=O)OCc2c1cc1n(c2=O)Cc2cc3ccccc3nc2-1 (stereo unspecified)" recorded_endpoint="growth inhibition" units_of_measure=% reported_result=5
compound="COc1cc(C2c3cc4c(cc3OC(OC(C)=O)C2C)OCO4)cc(OC)c1OC (stereo unspecified)" recorded_endpoint="growth inhibition" units_of_measure=% reported_result=-7
compound=Cc1cc(C)nc(NS(=O)(=O)c2ccc(Nc3c4ccccc4nc4c(C(=O)NCCO)cccc34)cc2)n1 recorded_endpoint="growth inhibition" units_of_measure=% reported_result=-3
compound=Cc1ccccc1N=C(NO)c1ccccc1 recorded_endpoint="growth inhibition" units_of_measure=% reported_result=-5
compound="O=C1CSC(c2cccc(Cl)c2)N1c1ccc(-c2ccc(-n3c(-c4ccccc4)nc4ccccc4c3=O)cc2)cc1 (stereo unspecified)" recorded_endpoint="growth inhibition" units_of_measure=% reported_result=11
compound="C=C1C(=O)OC2CC1C(OC(C)=O)C/C(C)=C/CC/C(C)=C\\CCC2(C)O (stereo unspecified)" recorded_endpoint="growth inhibition" units_of_measure=% reported_result=9
compound=Cc1c(-c2ccccn2)ccc2ccccc12 recorded_endpoint="growth inhibition" units_of_measure=% reported_result=-3
compound=O=C(/C=C(/c1ccccc1)N1CCCCC1)c1ccccc1 recorded_endpoint="growth inhibition" units_of_measure=% reported_result=-7
compound=CCOC(=O)c1cc([N+](=O)[O-])c(Sc2ncnc3nc[nH]c23)c([N+](=O)[O-])c1 recorded_endpoint="growth inhibition" units_of_measure=% reported_result=-2
compound=CCCCCCCCCCCC1=NCCO1 recorded_endpoint="growth inhibition" units_of_measure=% reported_result=-1
compound=O=C1C=C(Cl)C(=O)C(c2ccc(Cl)cc2)=C1 recorded_endpoint="growth inhibition" units_of_measure=% reported_result=32
compound=c1ccc2[nH]c(-c3cscn3)nc2c1 recorded_endpoint="growth inhibition" units_of_measure=% reported_result=-3
compound=O=C1Nc2ccc(Br)cc2C1=Nc1ccc2c(c1)OCO2 recorded_endpoint="growth inhibition" units_of_measure=% reported_result=15
compound=CC1(C)CC(=O)C(/C=N/c2nc(-c3ccccc3)cs2)=C(O)C1 recorded_endpoint="growth inhibition" units_of_measure=% reported_result=-5
compound=Cc1nc(-c2cc3cc([N+](=O)[O-])ccc3oc2=O)cs1 recorded_endpoint="growth inhibition" units_of_measure=% reported_result=3
compound=O=c1c2ccccc2nc(-c2ccccc2)n1O recorded_endpoint="growth inhibition" units_of_measure=% reported_result=9
compound=S=c1sc2c(s1)SCCS2 recorded_endpoint="growth inhibition" units_of_measure=% reported_result=0
compound=Cc1cc(C(C)(C)C)c(OCCCN2CCOCC2)c(C(C)(C)C)c1 recorded_endpoint="growth inhibition" units_of_measure=% reported_result=-4
compound=O=C(O)c1ccccc1/C=N/N=C1c2ccccc2-c2ccccc21 recorded_endpoint="growth inhibition" units_of_measure=% reported_result=0
compound="COc1ccc(C(NCCNC(c2ccc(OC)c(OC)c2)c2cc3c(cc2O)OCO3)c2cc3c(cc2O)OCO3)cc1OC (stereo unspecified)" recorded_endpoint="growth inhibition" units_of_measure=% reported_result=1
compound=Nc1ccc(F)cc1S recorded_endpoint="growth inhibition" units_of_measure=% reported_result=-50
compound=CCCCC/C(=C(\C#N)C(=O)OCC)c1ccccc1 recorded_endpoint="growth inhibition" units_of_measure=% reported_result=-5
compound="CCOC1Oc2ccccc2-c2nc(N)ncc21 (stereo unspecified)" recorded_endpoint="growth inhibition" units_of_measure=% reported_result=4
compound=O=C(NNc1ccccc1)c1ccc(Cl)c(Cl)c1 recorded_endpoint="growth inhibition" units_of_measure=% reported_result=-3
compound=CCCC/C=C/C(C)(C(=O)OCC)C(=O)OCC recorded_endpoint="growth inhibition" units_of_measure=% reported_result=-7
compound=COc1ccc(/C=C/c2sc3ccccc3[n+]2CCCCI)cc1OC recorded_endpoint="growth inhibition" units_of_measure=% reported_result=-7
compound="Cc1ccc(NC(c2ccccc2)c2ccc3cccnc3c2O)cc1 (stereo unspecified)" recorded_endpoint="growth inhibition" units_of_measure=% reported_result=-1
compound=Cc1ccc2nc(-c3cccc([N+](=O)[O-])c3)oc(=O)c2c1 recorded_endpoint="growth inhibition" units_of_measure=% reported_result=22

---

experiment: NCI Yeast Anticancer Drug Screen. Data for the mlh1 strain (AID 171);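 note: 0% = growth of vehicle-treated control cultures of the same strain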; settings: S. cerevisiae mlh1 strain growth inhibition; at 100.0 µM; stronger effect = higher value
The panel holds about 79,000 compounds, 15% with a hit somewhere; the sample as a whole holds those more often.
Measured growth inhibition, listed per entry for reference.
recorded_endpoint: growth inhibition (%)

compound=Nc1cc(N)c(N=Nc2cccc3c(S(=O)(=O)O)cccc23)cc1N=Nc1cc([N+](=O)[O-])ccc1O units_of_measure=% reported_result=23
compound=CCN(CC)CCNc1ccc2ncn3c4cc(OC)c(OC)c(=O)c4c(O)c1c23 units_of_measure=% reported_result=7
compound=O=C1c2ccccc2C(=O)c2cc(CCl)ccc21 units_of_measure=% reported_result=10
compound=Cc1nc(Nc2ccccc2[N+](=O)[O-])sc1C(=O)CC(=O)C(=O)Nc1c(C(C)C)cccc1C(C)C units_of_measure=% reported_result=5
compound=CCOC(=O)c1ccc(NC(=O)O/N=C(/Cl)C(C)C)cc1 units_of_measure=% reported_result=99
compound=O=C(O)c1cc2ccccc2c2c1C(=O)c1ccccc1-2 units_of_measure=% reported_result=95
compound=O=C1C=C(Cl)C(=O)N1c1cccc(Cl)c1 units_of_measure=% reported_result=100
compound=O=[N+]([O-])c1cccc2nc3ccccc3c(NCCC[N+]3([O-])CCCCC3)c12 units_of_measure=% reported_result=66
compound=Cc1cc(NCCCCCCCCNc2cc(C)nc3cc(N)ccc23)c2ccc(N)cc2n1 units_of_measure=% reported_result=94
compound="CCCCCCC(O)CNCc1ccnc2ccc(OC)cc12 (centres undefined)" units_of_measure=% reported_result=35
compound=CCOC1=C/C(=N\Nc2ccc([N+](=O)[O-])cc2)CCC1 units_of_measure=% reported_result=7
compound=O/N=C\c1c(O)ccc2ccccc12 units_of_measure=% reported_result=65
compound=O=C(CC(=O)n1nc(-c2ccccc2)c(N=Nc2ccc(Cl)cc2)c1-c1ccccc1)Nc1cccc(Cl)c1 units_of_measure=% reported_result=-6
compound=Cc1cc(-c2cc(C)c(O)c(C(C)(C)C)c2)cc(C(C)(C)C)c1O units_of_measure=% reported_result=65
compound=CN(C)c1ccc(N=Nc2ccncc2)cc1 units_of_measure=% reported_result=47
compound=C/C=C/SC(=Nc1ccccc1)Nc1ccccc1 units_of_measure=% reported_result=98
compound="O=C1C=C(c2ccccc2)OC1(c1ccccc1)N1CCOCC1 (centres undefined)" units_of_measure=% reported_result=98
compound=O=C(O)c1ccccc1/C=N/N=C1c2ccccc2-c2ccccc21 units_of_measure=% reported_result=8
compound=CCCCOP(=O)(CCCP(=O)(OCCCC)OCCCC)OCCCC units_of_measure=% reported_result=91
compound=COc1cc([C@@H]2c3cc4c(cc3[C@@H](Nc3ccc(NC(=O)c5cc([N+](=O)[O-])cn5C)cc3)[C@H]3COC(=O)[C@H]23)OCO4)cc(OC)c1O units_of_measure=% reported_result=53
compound=CCOc1c(N=Nc2ccccc2OC)c(C)nn1C(=S)S units_of_measure=% reported_result=65
compound=CCCC/C=C/C(C)(C(=O)OCC)C(=O)OCC units_of_measure=% reported_result=29
compound=Cc1ccccc1N=C(NO)c1ccccc1 units_of_measure=% reported_result=95
compound="N=C1N=Nc2nc(C3(c4nc5n(c4O)C(=N)N=N5)Cc4ccccc4C3=O)c(O)n21 (centres undefined)" units_of_measure=% reported_result=95
compound="CCOC(=O)CC1(C(=O)OCC)c2[nH]c3ccccc3c2CCN1Cc1ccccc1 (centres undefined)" units_of_measure=% reported_result=45
compound="Cc1cccc[n+]1C1CCc2c(ccc3ccccc23)C1=O (centres undefined)" units_of_measure=% reported_result=68
compound="CC1CC(C)(C)CC(OCCN2CCCCC2)(c2ccccc2)C1 (centres undefined)" units_of_measure=% reported_result=87
compound="CC(C)CCCC(C)C1CCC2C3CCC4=CC(=O)/C(=C\\O)CC4(C)C3CCC12C (centres undefined)" units_of_measure=% reported_result=15
compound="CCCCCCN(CCCCCC)CC(O)c1ccnc2ccc(OC)cc12 (centres undefined)" units_of_measure=% reported_result=74
compound=CCCCCOC(=S)SC(=O)OCC units_of_measure=% reported_result=95
compound=Cc1cc(O)c(C(C)C)cc1C1(c2cc(C(C)C)c(O)cc2C)OC(=O)c2ccccc21 units_of_measure=% reported_result=31
compound="COc1ccc(NC(=O)CC2SC(=Nc3ccccc3C)NC2=O)c([N+](=O)[O-])c1 (centres undefined)" units_of_measure=% reported_result=99
compound=CC(C)=NOC(=O)Nc1ccc(Cl)cc1 units_of_measure=% reported_result=83
compound=Cc1cc(C(C)(C)CC(C)(C)C)ccc1O units_of_measure=% reported_result=99
compound=Cc1csc(=S)n1OC(=O)NC1CCCCC1 units_of_measure=% reported_result=98
compound=O=[n+]1c2ccccc2n([O-])c2cc(Br)ccc21 units_of_measure=% reported_result=98
compound=Cc1nc2ccc(N=NN(C)C)cc2[nH]1 units_of_measure=% reported_result=99
compound=COc1cccc(/C=N/C(/N=C/c2cccc(OC)c2O)c2cccc(OC)c2O)c1O units_of_measure=% reported_result=97
compound="CC(=O)SC(C[N+](=O)[O-])c1ccccc1 (centres undefined)" units_of_measure=% reported_result=99
